- TESTED SYSTEM: T1, TIAM2, Q8IVF5
- T1 sequence (Q8IVF5 885-986, limits assumed, looked up): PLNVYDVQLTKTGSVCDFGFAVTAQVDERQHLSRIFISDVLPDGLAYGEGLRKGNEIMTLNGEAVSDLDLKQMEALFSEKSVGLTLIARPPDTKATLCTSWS
- ASSAY OVERVIEW: holdup assay
- Design: key: below the threshold = too weak to quantify, mostly under pKd 3.1 to 4
- MEASUREMENT CONDITIONS: plain residues with an end cap or a label only (N-terminal biotin on a linker: ado-ado)
pKd: recorded values
Give the figure by itself; no unit, no explanation.

{"BINDER": "GDSSRKEYFI [GYPC, P04921]", "OBSERVATION TYPE": "pKd", "VALUE": 4.23}

Measured pKd, QKASRNESTF [POLR1D, P0DPB6] : 3.92

Measured pKd, GQNMTVSVVI [PRLHR, P49683] : 4.2

Measured pKd, YAEKRMLTEV [KCNA6, P17658] : 3.99
